# test summary: Lipophilicity, log D of the compound at pH 7.4
# Type: physicochemical
# study conditions: buffer
Consider the following molecules and their measured logD readings.
The response must contain the number and no unit.

Record excerpt, results attached:
Nc1nc(N)c2c(OCC3CCN(Cc4c(Cl)cccc4Cl)CC3)cccc2n1
2.8
Cc1ncccc1OCc1cccc2nc(N)nc(N)c12
1.4

Now consider the entry below.
Name the recorded logD of the molecule listed here: N#Cc1cc(F)cc(OCc2cccc3nc(N)nc(N)c23)c1
1.9

* * *

Protein target, amino acids: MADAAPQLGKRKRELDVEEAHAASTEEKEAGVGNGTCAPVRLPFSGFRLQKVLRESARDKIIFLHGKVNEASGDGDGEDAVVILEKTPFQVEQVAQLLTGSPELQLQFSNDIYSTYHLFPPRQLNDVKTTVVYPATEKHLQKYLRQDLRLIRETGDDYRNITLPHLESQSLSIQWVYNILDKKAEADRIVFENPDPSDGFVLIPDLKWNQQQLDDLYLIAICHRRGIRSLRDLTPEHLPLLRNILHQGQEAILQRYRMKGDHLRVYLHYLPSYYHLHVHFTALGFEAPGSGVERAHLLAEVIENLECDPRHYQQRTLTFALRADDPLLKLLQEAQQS
pIC50: −log10 of the molar value.
test readout: pIC50

Name the recorded pIC50 of the molecule listed here: Cc1cc(COc2cc(F)cc(C#N)c2)c2c(N)nc(N)nc2c1
< 5.00

* * *

# test summary: Stability in human liver microsomes at 1 uM
# Format: ADME, microsome
# study conditions: read-out: Stability
Consider the following compounds and their measured half-life at 1 µM readings.

N#Cc1cc(F)cc(OCc2cccc3nc(N)nc(N)c23)c1
> 115 min
Nc1nc(N)c2c(OCC3CCN(Cc4c(Cl)cccc4Cl)CC3)cccc2n1
3 min

Now consider the entry below.
Name the recorded half-life at 1 µM of the compound listed here: Cc1ncccc1OCc1cccc2nc(N)nc(N)c12
> 120 min

* * *

# test summary: Apparent passive permeability across apical to basolateral side in RRCK2 cells at 2 uM
# Type: ADME, cell-based, Canis lupus familiaris
# study conditions: dog, MDCK
test readout: Papp A→B at 2 µM
Quick note: number first, unit second.

Record excerpt, results attached:
Nc1nc(N)c2c(OCC3CCN(Cc4c(Cl)cccc4Cl)CC3)cccc2n1
0.62 ×10⁻⁶ cm/s
Cc1ncccc1OCc1cccc2nc(N)nc(N)c12
18 ×10⁻⁶ cm/s

Now consider the entry below.
Name the recorded Papp A→B at 2 µM of the compound listed here: N#Cc1cc(F)cc(OCc2cccc3nc(N)nc(N)c23)c1
13 ×10⁻⁶ cm/s
